Let's look at some compounds and their measured GI50.
tested on: SNB-75; assay: NCI tumour cell line growth inhibition, 48 h
Activity calls are given as the source filed them. Cut-off read from the data, not from the text of the source: active = GI50 up to about 1.1 µM and inactive = higher.

# annotated cases, reported GI50 shown
COc1ccc(NC(=S)Nc2cc(C)cc(C)n2)cc1 = > 100 µM (inactive)
CCN(CC)CCOC(=O)c1ccc(N)cc1.CCOC(=O)Nc1ccc(S(=O)(=O)OC)cc1.CCOC(=O)Nc1ccc(S(=O)(=O)OC)cc1.Nc1ccc(C(=O)O)c(O)c1 = 40.2 µM (inactive)
CCN(CC)C(=S)SNc1ccc(S(N)(=O)=O)cc1 = > 72.9 µM (inactive)
CC1=C[C@]2(CC(C)C3C(CC4(C)C5CCC6C(C)(C)C(=O)CC[C@@]67C[C@@]57CC[C@]34C)O2)OC1=O (stereo not given in full) = 16.8 µM (inactive)
CC(/C=N/N=C(N)N)=N\N=C(N)N = 25.2 µM (inactive)

Recorded GI50 for CCOC(=O)OC1(c2ccccc2)CCN(C)CC1 , please?
> 100 µM (inactive)

What do you get for CC(=O)O[C@]12CCCCCCC1C1(O)C(O)CCC[C@H]12 (stereo not given in full) ?
> 100 µM (inactive)

// same read-out, input: CC1=CC(=O)/C(=C/NC(=S)c2ccccc2)C(=O)O1
> 100 µM (inactive)

# repeat for O=C(O)C1CCCCN1C(=O)c1ccccc1 (stereo not given)
> 100 µM (inactive)

Can you handle O=C(O)c1ccc2c(c1)CC1(C2)Cc2cc3c(cc2C1=O)CCC3 (stereo not given) next?
56 µM (inactive)

###

Examples of compounds with documented GI50 follow.
test system: RXF 393; assay: NCI tumour cell line growth inhibition, 48 h
Activity calls are given as the source filed them. No stated cut-off is given here; in the data, active = GI50 up to about 1.1 µM and inactive = higher. Peptide text beside a SMILES is read from it. * marks the point of attachment. Boc = CC(C)(C)OC(=O)*

CCOCC(NC(=O)C(CC(C)C)NC(=O)OC(C)(C)C)C(N)=O (stereo not drawn) (Boc-Leu-Ser(Et)-NH2; configuration not given here) = > 100 µM (inactive)

Reported GI50, compound Clc1nss/c1=N/c1nonc1-c1ccccc1 : ____
29.2 µM (inactive)

Repeat for the following compound: N#CC(C(=O)/C(=N/Nc1nc(S)nn1N)C(C#N)c1ccccc1)c1ccccc1 (centres undefined)
> 100 µM (inactive)

What would you report for N#Cc1ccc(-c2nc3c(N)ncnc3o2)cc1 ?
> 100 µM (inactive)

// next record N#C/C(=C\Nc1ccccn1)C(=O)c1ccco1
> 100 µM (inactive)

Thanks! And Cn1c2c(c3ccccc31)C1C(=O)N(c3ccccc3)C(=O)C1CC2 (centres undefined) ?
> 303 µM (inactive)

###

system: HT-29; assay: NCI tumour cell line growth inhibition, 48 h
Active and inactive are the calls of the source. No stated cut-off is given here; in the data, active = GI50 up to about 1.1 µM and inactive = higher.
outcome measure: GI50

# get_value(readout='GI50', item= O=C(NC1=C(Cl)C(=O)c2ccccc2C1=O)C(=O)C(C(=O)c1ccc2ccccc2c1)C1OC(=O)c2ccccc21 (configuration not stated) )
4.07 µM (inactive)

Now the compound COC(=O)CC(=O)NCC1=CCC(=O)CC1
> 100 µM (inactive)

Consider next the compound Cn1nc2ccc([N+](=O)[O-])c(Cn3nnc4ccccc43)c2n1 in the same way.
> 100 µM (inactive)

Check N#CC1Cc2cc3c(cc21)OCO3 (configuration not stated) too.
> 100 µM (inactive)

Now give it for O=C(O)C1=NN(c2ccc(S(=O)(=O)O)cc2)C2(C1)C(Cl)C(=O)N2c1nc2ccccc2s1 (configuration not stated) too.
17.8 µM (inactive)

Then this compound: COc1cc2cc[n+](C)c(Cc3ccccc3)c2cc1OC
> 100 µM (inactive)

And what about the compound Clc1nss/c1=N/c1nonc1-c1ccccc1 ?
22 µM (inactive)

Also, COc1ccc(/C=N/Nc2nc3ccccc3c(=O)n2-c2ccccc2)c(OCc2ccccc2)c1 please.
> 100 µM (inactive)
